molecular target: HDM2 (Homo sapiens, UniProt Q00987); construct: Thioredoxin (N); made in house; host or cells: E. coli strain BL21(DE3)Rosetta; assay: FRET assay (HDM2 inhibition; method not described in this part); assay type: binding; conditions: Table 1
Sequence (Q00987 17-125): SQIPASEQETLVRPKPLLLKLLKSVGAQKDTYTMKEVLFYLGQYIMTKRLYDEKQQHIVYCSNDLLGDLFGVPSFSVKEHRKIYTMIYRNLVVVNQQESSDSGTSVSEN
pIC50: −log10 of the molar value.
PROPERTY: pIC50

{"COMPOUND": "CCOc1ccc(CC)cc1-c1nc2nc(C(=O)O)nc(N[C@H](C)C3CCC3)c2n1Cc1ccc(C(F)(F)F)cc1 [Example 1.32]", "VALUE": 7.63}
{"COMPOUND": "Cc1cc(-c2nc3nc(C(=O)O)nc(N[C@H](C)C4CC4)c3n2Cc2ccc(C(F)(F)F)cc2)ccn1 [Example 1.118]", "VALUE": 5.86}
{"COMPOUND": "C[C@@H](Nc1nc(C(=O)O)nc2nc(-c3cc(CCC(C)(C)C)ccn3)n(Cc3ccc(C(F)(F)F)cc3)c12)C1CCC1 [Example 1.88]", "VALUE": 7.71}
{"COMPOUND": "C[C@@H](Nc1nc(C(=O)O)nc2nc(-c3cc(C(F)F)cc(C(F)F)n3)n(Cc3ccc(C(F)(F)F)cc3)c12)C1CCC1 [Example 1.64]", "VALUE": 7.64}
{"COMPOUND": "C[C@@H](Nc1nc(C(=O)O)nc2nc(-c3cc(C4CCC4)ccn3)n(Cc3ccc(C(F)(F)F)cc3)c12)C1CCC1 [Example 1.54]", "VALUE": 8.25}
{"COMPOUND": "COc1ccc2cc(-c3nc4nc(C(=O)O)nc(N[C@H](C)C5CCC5)c4n3Cc3ccc(C(F)(F)F)cc3)ccc2c1 [Example 1.133]", "VALUE": 7.13}
{"COMPOUND": "Cc1cc(OC(F)(F)F)ccc1-c1nc2nc(C(=O)O)nc(N[C@H](C)C3CCC3)c2n1Cc1ccc(C(F)(F)F)cc1 [Example 1.129]", "VALUE": 7.34}
{"COMPOUND": "CCOc1ccc(C(F)(F)F)cc1-c1nc2nc(C(=O)O)nc(N[C@H](C)C3CCC3)c2n1Cc1ccc(C(F)(F)F)cc1 [Example 1.33]", "VALUE": 7.70}
{"COMPOUND": "C[C@@H](Nc1nc(C(=O)O)nc2nc(-c3cc(OC4CCC4)ccn3)n(Cc3ccc(C(F)(F)F)cc3)c12)C1CCC1 [Example 1.45]", "VALUE": 7.29}
